The reported numbers originate from ChEMBL document CHEMBL5058577.

system: U2OS; experiment: Multiplex assay against U2OS; type: toxicity, cell-based; settings: human, 24 h, 1 µM, compound concentration 1 uM, replicate 1
Population Tubulin-Different-Phenotype (%) overview
MEASURED_QUANTITY: Population Tubulin-Different-Phenotype (%)

- COMPOUND: "COc1ccc2c(c1OCc1ccccc1)C[C@@H](C(=O)O)N(C(=O)C(c1ccccc1)c1ccccc1)C2"
  REPORTED_VALUE: "2%"
- COMPOUND: "Cc1ccc(OCC(O)C(C)NC(C)C)c2c1CCC2.Cl (configuration not stated)"
  REPORTED_VALUE: "4%"
- COMPOUND: "Nc1nc(-c2ccco2)c2cnn(Cc3ccccc3F)c2n1"
  REPORTED_VALUE: "2%"
- COMPOUND: "Cl.Cl.OCCOCCN1CCN(C(c2ccccc2)c2ccc(Cl)cc2)CC1 (configuration not stated) [HYDROXYZINE HYDROCHLORIDE]"
  REPORTED_VALUE: "7%"
- COMPOUND: "Cc1cc(O)c(-c2ccc([C@@H](C)CN(C)C)cc2)c2c1[nH]c(=O)c1sccc12"
  REPORTED_VALUE: "19%"
- COMPOUND: "COc1ccc2[nH]c(I)c(CCNC(C)=O)c2c1"
  REPORTED_VALUE: "2%"
- COMPOUND: "N[C@](CC1c2ccccc2Oc2ccccc21)(C(=O)O)[C@H]1C[C@@H]1C(=O)O"
  REPORTED_VALUE: "1%"
